Ref: the RNAGym collection of RNA variant scans (doi:10.1126/science.aae0568)

B1: tRNA (parent)
chain: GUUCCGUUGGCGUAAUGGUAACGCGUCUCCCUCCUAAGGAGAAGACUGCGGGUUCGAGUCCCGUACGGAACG

Variants of: B1
run_description: yeast fitness relative to wild type (ratio to wild type); higher = fitter; tRNA-Arg(CCU), competitive growth, 37 C, YPD
Fewer inactive variants are shown than the library holds.
I would appreciate it if you labelled entries Criterion met when yeast fitness is 0.6 or higher, otherwise Criterion not met.

# example entries with known answers
| alteration | class_name |
| --- | --- |
| C11U A21G C62U | Criterion met |
| C5U U13A C29A C31G | Criterion not met |
| C11G A15U C24G A40G C62U | Criterion not met |
| G6C C34G A69C | Criterion not met |
| U16A U32A A40C C62U | Criterion not met |

Prompt: Confirm if yeast fitness reported for the variant C5G U7C C11G A40G A57U is 0.6 or above.
Completion: Criterion not met

Prompt: Confirm if yeast fitness reported for the variant U3A C46A A69C is 0.6 or above.
Completion: Criterion met

Prompt: Confirm if yeast fitness reported for the variant A14C G17C is 0.6 or above.
Completion: Criterion met

Prompt: Confirm if yeast fitness reported for the variant G6A A57C A65C is 0.6 or above.
Completion: Criterion not met

Prompt: Confirm if yeast fitness reported for the variant G10C G12C G39A is 0.6 or above.
Completion: Criterion not met

Prompt: Confirm if yeast fitness reported for the variant C30U G38A G68C is 0.6 or above.
Completion: Criterion not met

Prompt: Confirm if yeast fitness reported for the variant C22U C33U G52A is 0.6 or above.
Completion: Criterion not met

Prompt: Confirm if yeast fitness reported for the variant A20G C31G C61U is 0.6 or above.
Completion: Criterion met

Prompt: Confirm if yeast fitness reported for the variant C30U A45U C49G is 0.6 or above.
Completion: Criterion met

Prompt: Confirm if yeast fitness reported for the variant A14U U28A C33U is 0.6 or above.
Completion: Criterion met

Prompt: Confirm if yeast fitness reported for the variant C4A C5U C22U C34A C49U C62U is 0.6 or above.
Completion: Criterion not met

Prompt: Confirm if yeast fitness reported for the variant U2G G50C U59A is 0.6 or above.
Completion: Criterion not met

Prompt: Confirm if yeast fitness reported for the variant U7G C46U is 0.6 or above.
Completion: Criterion met

Prompt: Confirm if yeast fitness reported for the variant G6A C34U A40G G68A is 0.6 or above.
Completion: Criterion not met
